# Assay type: in vivo, human
# experimental setup: human, plasma, po, 40 mg

{"compound": "Cc1ccc(-n2nccn2)c(C(=O)N2CCN(c3nc4cc(Cl)ccc4o3)CC[C@H]2C)c1 [Suvorexant, suvorexant]", "scale unit": "h", "Tmax": 2}

---

# experiment description: Suvorexant pharmacokinetics across both trials
# Assay type: in vivo
# experimental setup: human, plasma, oral, 40 mg

{"compound": "Cc1ccc(-n2nccn2)c(C(=O)N2CCN(c3nc4cc(Cl)ccc4o3)CC[C@H]2C)c1 [Suvorexant, suvorexant]", "half-life": "11.2 to 12.9 h"}

---

# Assay type: in vivo, human
# experimental setup: human, plasma, po, 4 mg

{"structure smiles": "Cc1ccc(-n2nccn2)c(C(=O)N2CCN(c3nc4cc(Cl)ccc4o3)CC[C@H]2C)c1", "Tmax / h": 1}
